# Tested on: large crabgrass (Digitaria sanguinalis)
# experiment summary: Test A pre-/postemergence plant response
# Format: in vivo
# measurement conditions: Preemergence, 500 g ai/ha; 0 to 100 scale (0 no effect, 100 complete control)
Entries and their Plant response rating, Crabgrass, Large

{"columns": ["smiles string", "Plant response rating, Crabgrass, Large"],
 "data": [
  ["CCc1cc(-c2ccc(Cl)cc2)nn1-c1c(O)cnn(C)c1=O", 100],
  ["CCc1cc(-c2ccc(Cl)c(Cl)c2)nn1-c1c(OC(=O)OC(C)C)cnn(C)c1=O", 90],
  ["Cc1cc(-n2cc(Cl)cn2)ccc1-c1c(O)cnn(C)c1=O", 80],
  ["Cc1nc(-c2ccc(Cl)cc2)nn1-c1c(O)cnn(C)c1=O", 70],
  ["Cc1cc(-c2ccc(C(F)(F)F)cc2)nn1-c1c(O)c(C(F)(F)F)nn(C)c1=O", 0],
  ["Cc1nn(C)c(=O)c(-n2nc(-c3ccc(Cl)cc3)cc2C)c1O", 100],
  ["CSc1cc(-c2ccc(F)cc2)nn1-c1c(O)cnn(C)c1=O", 0],
  ["CCn1ncc(O)c(-c2cn(-c3ccc(Cl)cc3)nc2C)c1=O", 0]
]}
